Record: compiled pIC50 on BTK (Homo sapiens, UniProt Q06187) from multiple reports.
Sequence (Q06187 whole entry): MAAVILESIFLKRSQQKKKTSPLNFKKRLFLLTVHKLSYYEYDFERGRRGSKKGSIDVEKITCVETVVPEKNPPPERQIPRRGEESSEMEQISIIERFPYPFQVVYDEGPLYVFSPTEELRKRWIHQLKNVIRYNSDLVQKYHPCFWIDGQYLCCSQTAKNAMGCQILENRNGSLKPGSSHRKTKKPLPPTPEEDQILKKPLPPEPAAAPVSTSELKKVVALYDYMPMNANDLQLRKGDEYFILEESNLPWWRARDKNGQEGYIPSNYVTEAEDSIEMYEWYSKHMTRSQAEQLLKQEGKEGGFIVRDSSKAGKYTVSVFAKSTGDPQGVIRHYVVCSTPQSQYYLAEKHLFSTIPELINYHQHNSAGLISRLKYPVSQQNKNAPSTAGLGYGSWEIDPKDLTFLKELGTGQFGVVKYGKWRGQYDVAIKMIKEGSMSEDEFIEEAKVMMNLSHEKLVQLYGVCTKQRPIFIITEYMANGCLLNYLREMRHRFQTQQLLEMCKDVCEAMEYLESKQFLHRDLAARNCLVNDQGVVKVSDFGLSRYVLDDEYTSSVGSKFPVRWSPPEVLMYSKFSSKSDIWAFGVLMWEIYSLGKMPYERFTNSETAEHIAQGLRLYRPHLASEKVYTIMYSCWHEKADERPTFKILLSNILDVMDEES
pIC50: −log10 of the molar value.
Quantity Name: pIC50

>>> result("C=CC(=O)N1CCOc2ccc(-c3csc4c(=O)cc(N5CCNCC5)oc34)cc21")
"> 6.00"
>>> result("C=CC(=O)N1CC(Nc2cncc(-c3cnc(Nc4cccc(OC(F)(F)F)c4)nc3)n2)C1")
"> 8.30"
>>> result("C[C@@H]1[C@H](Nc2ncnc3[nH]ncc23)CCCN1C(=O)CNc1cc(Cl)cc(Cl)c1")
"> 7.00"
>>> result("Cc1cc(-c2ccnc(Nc3cnn(C[C@@H]4CNCCO4)c3)n2)ccc1CNC(=O)c1cnc(C(C)(C)C)s1")
"> 8.00"
>>> result("C=CC(=O)N[C@H]1CC[C@@H](Nc2nc(Nc3ccc(N4CCN(C)CC4)c(F)c3)nc3ccsc23)CC1")
"≥ 7.30"
>>> result("CN(C)C/C=C/C(=O)N1CCC[C@@H](n2cc(-c3ccc(Oc4ccccc4)c(F)c3)c3c(N)n[nH]c(=O)c32)C1")
"≥ 8.00"
>>> result("COC(C)c1ncc(C(=O)NCc2ccc(-c3ccnc(N)n3)cc2C)s1 (stereo not shown)")
"6.00 to 7.00"
